experiment: Distribution coefficient, logD of the compound at pH 7.4; conditions: octanol/water
Value Type: logD
One number for each entry.

Worked examples, 4 compounds total:
Sample C[C@H](CF)C(=O)N1[C@H](c2c(F)cc(OCCN3CC(CF)C3)cc2F)c2[nH]c3ccccc3c2C[C@H]1C — what was its logD? 2.5

Proceed to C[C@@H]1Cc2c([nH]c3ccccc23)[C@@H](c2c(F)cc(OCCN3CC(CF)C3)cc2F)N1C(=O)CC1CC1 3.1

Subsequent entry: C[C@@H]1Cc2c([nH]c3ccccc23)[C@@H](c2c(F)cc(OCCN3CC(CF)C3)cc2F)N1C(=O)C1COC1 1.8

// query: C[C@@H]1Cc2c([nH]c3ccccc23)[C@@H](c2ccc(OCCN3CC(CF)C3)cc2F)N1S(C)(=O)=O 2.5

Continuing:
Item C[C@@H]1Cc2c([nH]c3ccccc23)[C@@H](c2c(F)cc(OCCN3CC(CF)C3)cc2F)N1S(C)(=O)=O has what recorded logD? 2.3

* * *

experiment: Oral bioavailability in rat; format: ADME, organism-based; details: in vivo
Value Type: bioavailability (%)
Answers are plain numbers, in %.

Record excerpt, results attached:
Looking for the measured bioavailability of C[C@@H]1Cc2c([nH]c3ccccc23)[C@@H](c2c(F)cc(OCCN3CC(CF)C3)cc2F)N1S(C)(=O)=O , can you help? 47

Field entry: C[C@@H]1Cc2c([nH]c3ccccc23)[C@@H](c2ccc(OCCN3CC(CF)C3)cc2F)N1S(C)(=O)=O 48

Could you do the same for C[C@@H]1Cc2c([nH]c3ccccc23)[C@@H](c2c(F)cc(OCCN3CC(CF)C3)cc2F)N1C(=O)C(C)(C)F , please? 33

Then there is this compound:
Reported bioavailability for C[C@@H]1Cc2c([nH]c3ccccc23)[C@@H](c2ccc(OCCN3CC(CF)C3)cc2)N1S(C)(=O)=O : what is it? 32

* * *

assay: Kinetic solubility of compound at pH 7.4; type: physicochemical; conditions: buffer, read-out: Kinetic_solubility
Hi there, I'd appreciate the recorded solubility kinetic for every entry that follows.

Illustrative cases are given below, each with its answer.
Entry CC(CO)C(=O)N1[C@H](c2c(F)cc(OCCN3CC(CF)C3)cc2F)c2[nH]c3ccccc3c2C[C@H]1C (stereo partly specified) has what solubility kinetic? 156 µM

Continue with C[C@@H]1Cc2c([nH]c3ccccc23)[C@@H](c2c(F)cc(OC3CN(CCCF)C3)cc2F)N1CC(C)(C)F < 1 µM

Another molecule to look at: C[C@@H]1Cc2c([nH]c3ccccc23)[C@@H](c2c(F)cc(OCCN3CC(CF)C3)cc2F)N1C(=O)[C@@H](C)CF 115 µM

For each of the molecules below, state solubility kinetic.
1. CC(C)C(=O)N1[C@H](c2c(F)cc(OCCN3CC(CF)C3)cc2F)c2[nH]c3ccccc3c2C[C@H]1C
2. C[C@@H]1Cc2c([nH]c3ccccc23)[C@@H](c2c(F)cc(OC3CN(CCCF)C3)cc2F)N1C(=O)C1(F)CC1
3. CC(=O)N1[C@H](c2c(F)cc(OCCN3CC(CF)C3)cc2F)c2[nH]c3ccccc3c2C[C@H]1C

1: 135 µM; 2: 13 µM; 3: 53 µM

# map each molecule to its solubility kinetic
1. C[C@@H]1Cc2c([nH]c3ccccc23)[C@@H](c2c(F)cc(OCCN3CC(CF)C3)cc2F)N1C(=O)C(C)(C)C
2. C[C@@H]1Cc2c([nH]c3ccccc23)[C@@H](c2c(F)cc(OCCN3CC(CF)C3)cc2F)N1S(C)(=O)=O
3. C[C@@H]1Cc2c([nH]c3ccccc23)[C@@H](c2c(F)cc(OCCN3CC(CF)C3)cc2F)N1C(=O)C(C)(C)F
4. C[C@@H]1Cc2c([nH]c3ccccc23)[C@@H](c2ccc(OCCN3CC(CF)C3)cc2)N1S(C)(=O)=O
5. C[C@@H]1Cc2c([nH]c3ccccc23)[C@@H](c2c(F)cc(OCCN3CC(CF)C3)cc2F)N1C(=O)C(C)(F)F
6. C[C@@H]1Cc2c([nH]c3ccccc23)[C@@H](c2c(F)cc(OC3CN(CCCF)C3)cc2F)N1C(=O)C(C)(C)F

["92 µM", "113 µM", "95 µM", "118 µM", "30 µM", "< 1 µM"]

Dear colleague, could you send me solubility kinetic for each of the items below? Thanks.
1. C[C@@H]1Cc2c([nH]c3ccccc23)[C@@H](c2c(F)cc(OCCN3CC(CF)C3)cc2F)N1C(=O)CC1CC1
2. C[C@@H]1Cc2c([nH]c3ccccc23)[C@@H](c2c(F)cc(OCCN3CC(CF)C3)cc2F)N1C(=O)C1CC1
3. C[C@@H]1Cc2c([nH]c3ccccc23)[C@@H](c2c(F)cc(OCCN3CC(CF)C3)cc2F)N1C(=O)C1CNC1
4. C[C@@H]1Cc2c([nH]c3ccccc23)[C@@H](c2ccc(OCCN3CC(CF)C3)cc2F)N1S(C)(=O)=O

1. 111 µM
2. 181 µM
3. 96 µM
4. 135 µM

* * *

test: Protein binding in human plasma assessed as unbound fraction; type: ADME, cell-free
Value Type: fraction unbound

What does the record list as fraction unbound for C[C@@H]1Cc2c([nH]c3ccccc23)[C@@H](c2c(F)cc(OC3CN(CCCF)C3)cc2F)N1CC(C)(C)F ? < 0.001

* * *

Target: UniProtKB P03372
Sequence (P03372 whole entry): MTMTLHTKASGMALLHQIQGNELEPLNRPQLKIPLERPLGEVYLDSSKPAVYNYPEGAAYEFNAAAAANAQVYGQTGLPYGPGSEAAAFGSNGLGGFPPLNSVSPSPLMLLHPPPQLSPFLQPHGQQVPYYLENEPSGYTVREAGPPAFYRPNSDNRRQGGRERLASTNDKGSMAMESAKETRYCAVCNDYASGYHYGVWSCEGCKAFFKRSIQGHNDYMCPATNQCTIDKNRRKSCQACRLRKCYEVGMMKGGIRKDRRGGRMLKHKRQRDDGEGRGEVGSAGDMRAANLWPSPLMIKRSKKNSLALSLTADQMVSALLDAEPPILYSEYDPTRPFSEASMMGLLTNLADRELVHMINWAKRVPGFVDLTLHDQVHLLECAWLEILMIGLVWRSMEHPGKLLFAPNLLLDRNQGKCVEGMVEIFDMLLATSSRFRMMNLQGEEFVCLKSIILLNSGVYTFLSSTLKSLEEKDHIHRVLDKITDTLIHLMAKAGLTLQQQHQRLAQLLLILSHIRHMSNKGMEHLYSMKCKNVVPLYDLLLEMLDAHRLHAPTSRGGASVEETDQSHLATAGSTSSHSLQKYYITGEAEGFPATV
Assay: Displacement of fluorescein PGC1alpha from recombinant ERalpha (unknown origin)
Value Type: IC50 (nM)
Answers are plain numbers, in nM.

Would you mind telling me what IC50 value was observed for C[C@@H]1Cc2c([nH]c3ccccc23)[C@@H](c2ccc(OCCN3CC(CF)C3)cc2F)N1S(C)(=O)=O ? 17

Would you kindly look at the next entry?
Given the entry C[C@@H]1Cc2c([nH]c3ccccc23)[C@@H](c2ccc(OCCN3CC(CF)C3)cc2)N1S(C)(=O)=O , report its measured IC50. 11

* * *

Could you please report measured DC50 for the items listed next?
target: Estrogen receptor (Homo sapiens, UniProt P03372); test: Induction of ERalpha degradation in human MCF7 cells by immunofluorescence assay; type: cell-based
Numbers only, in nM.

Use the examples below as a reference point.
Which DC50 value belongs to CC(C)C(=O)N1[C@H](c2c(F)cc(OCCN3CC(CF)C3)cc2F)c2[nH]c3ccccc3c2C[C@H]1C ? 0.11

Now the molecule C[C@@H]1Cc2c([nH]c3ccccc23)[C@@H](c2c(F)cc(OCCN3CC(CF)C3)cc2F)N1C(=O)CC1CC1 5

What would you report for CC(CO)C(=O)N1[C@H](c2c(F)cc(OCCN3CC(CF)C3)cc2F)c2[nH]c3ccccc3c2C[C@H]1C (some centres undefined) ? 4

Next:
Field request: DC50 | item: C[C@@H]1Cc2c([nH]c3ccccc23)[C@@H](c2c(F)cc(OCCN3CC(CF)C3)cc2F)N1C(=O)C1CC1 3

* * *

I'd appreciate it if you could supply solubility kinetic values for the items below.
assay: Kinetic solubility of compound at pH 7.4; type: physicochemical; conditions: buffer, read-out: Kinetic_solubility
One number for each entry, in µM.

May I ask what solubility kinetic has been recorded for C[C@@H]1Cc2c([nH]c3ccccc23)[C@@H](c2c(F)cc(OCCN3CC(CF)C3)cc2F)N1C(=O)C1COC1 ? 117

New cases:
Could you tell me which solubility kinetic is on file for C[C@H](CF)C(=O)N1[C@H](c2c(F)cc(OCCN3CC(CF)C3)cc2F)c2[nH]c3ccccc3c2C[C@H]1C ? 102

* * *

assay: Apparent permeability across basolateral to apical side in MDCK cells; assay type: ADME, cell-based, Canis lupus familiaris; conditions: dog
Value Type: Papp B→A (×10⁻⁶ cm/s)
Answers are plain numbers, in ×10⁻⁶ cm/s.

These recorded examples may help you get a feel for the data.
Which value of Papp B→A has been reported for C[C@@H]1Cc2c([nH]c3ccccc23)[C@@H](c2c(F)cc(OC3CN(CCCF)C3)cc2F)N1CC(C)(C)F in the records? 0.2

Cool, now C[C@@H]1Cc2c([nH]c3ccccc23)[C@@H](c2c(F)cc(OCCN3CC(CF)C3)cc2F)N1S(C)(=O)=O 4

Dear reader, for each entry below, please note its Papp B→A.
1. C[C@@H]1Cc2c([nH]c3ccccc23)[C@@H](c2c(F)cc(OCCN3CC(CF)C3)cc2F)N1C(=O)C(C)(C)F
2. C[C@@H]1Cc2c([nH]c3ccccc23)[C@@H](c2ccc(OCCN3CC(CF)C3)cc2)N1S(C)(=O)=O

1
6

Find the recorded Papp B→A belonging to C[C@@H]1Cc2c([nH]c3ccccc23)[C@@H](c2ccc(OCCN3CC(CF)C3)cc2F)N1S(C)(=O)=O and report it. 5
